- System Tested: T1, biotinylated chitobiose-conjugated 18-mer glycopeptide (human, also: biotinylated, site not given here)
- T1 construct: Cys plus T22-V38 of MUC16^c114; The range is derived from T22-V38 and the statement that c114 is 1777-1890; also called (GlcNAc2)2-18-mer, biotinylated; 18-mer(chitobiose)2[C-T22-V38]
- T1 peptide: Ac-CTRN(GlcNAc2)GTQLQN(GlcNAc2)FTLDRSSV-NH2
- Test Method Notes: BLI (Octet QK), biotinylated glycopeptide on streptavidin sensor, antibody 10 ug/mL, 1:1 model
* marks the point of attachment. GlcNAc2 = N-linked chitobiose, CC(=O)N[C@@H]1[C@@H](O)[C@H](O[C@@H]2O[C@H](CO)[C@@H](O)[C@H](O)[C@H]2NC(C)=O)[C@@H](CO)O[C@H]1*
Result Type: Kd (nM)
Give the quantity in nM, number only.

{"Binder": "18C6.D12 (antibody, V domains shown, Mouse monoclonal from a hybridoma; also called MUC16 Glycosylation Antibody 18C6) VH: QVTLKESGPGILQPSQTLSLTCSFSGFSLSTVGMGVGWSRQPSGKGLEWLAHIWWDDEDKYYNPALKSRLTISKDTSKNQVFLKIANVDTADTATYYCTRIGTAQATDALDYWGQGTSVTVSS VL: DIVMTQAAPSVPVTPGESVSISCRSSKSLLHSNGNTYLYWFLQRPGQSPQRLIYYMSNLASGVPDRFSGRGSGTDFTLRISRVEAEDVGVYYCMQSLEYPLTFGGGTKLEIK", "Reading Unit": "nM", "Kd": 11.1}
{"Binder": "7B12.B3 (antibody, V domains shown, Mouse monoclonal from a hybridoma; also called MUC16 Glycosylation Antibody 7B12) VH: QVTLKESGPGILQPSQTLSLTCSFSGFSLSTVGMGVGWSRQPSGKGLEWLAHIWWDDEDKYYNPALKSRLTISKDTSKNQVFLKIANVDTADSATYYCTRIGTAQATDALDYWGQGTSVTVSS VL: DIVMTQAAPSVSVTPGESVSISCRSSKSLRKSNGNTYLYWFLQRPGQSPQRLIYYMSNLASGVPDRFSGRGSGTDFTLRISRVEAEDVGVYYCMQSLEYPLTFGGGTKLKIK", "Reading Unit": "nM", "Kd": 13.8}
{"Binder": "19C11.H6 (antibody, V domains shown, Mouse monoclonal from a hybridoma; Used as 89Zr-DFO-labelled antibody in the internalization assay; also called MUC16 Glycosylation Antibody 19C11) VH: QVNLKESGPGKLQPSQTLSLTCSFSGFSLSTLGMGVGWIRQSSGKGLEWLAHIWWDDDKYYNPALKSRLTISRATSKNQVFLKIVNVGTADTATYYCARIGTAQATDALDYWGQGTSVTVSS VL: DIVMTQAAPSIPVTPGESVSISCRSSKSLLHSNGNTYLYWFLQRPGQSPQRLIYYMSNLASGVPDRFSGRGSGTDFTLKISRVEAGDVGVYYCMQGLEHPLTFGGGTKLEIK", "Reading Unit": "nM", "Kd": 63.7}

## Task Please give the measured Kd for this binder: 16C5.C1 (antibody, V domains shown, Mouse monoclonal from a hybridoma) VH: QVTLKESGPGILQPSQTLSLTCSFSGFSLNTLGMGVGWIRQPSGKGLEWLAHIWWDDDKYYYPALKSRLTISRDTSKNQVFLKIANVDTADTATYYCARIGTAQATDALDYWGQGTSVTVSS VL: ELDMTQTPPSLSASVGETVRIRCLASEDIYSGISWYQQKPGKPPTLLIYGASNLESGVPPRFSGSGSGTDYTLTIGGVQAEDAATYYCLGGYSYSSTLTFGAGTNVEIK
## Result 25.7

Data origin, for the record: patent US20180112008A1
